# Test system: SR
# Assay protocol: NCI tumour cell line growth inhibition, 48 h
The source made the active and inactive calls. Cut-off read from the data, not from the text of the source: active = GI50 up to about 1.1 µM and inactive = higher.
Returns: one label drawn from yes = active, no = inactive

Compound: Cc1ccc(/C=C2\N=C(N3CCCC(CO)C3)NC2=O)cc1 (stereo not drawn)
Assigned class: no
--
Compound: O=[N+]([O-])c1ccc(C(O)(C#CCN2CCCC2)c2ccccc2)cc1 (stereo not drawn)
Assigned class: no
--
Compound: Cc1cc(O)c2c(c1O)C(=O)c1c(O)ccc(O)c1C2=O
Assigned class: no

Challenge: Could you please tell me the result logged for CC(=O)O[C@H]1C(=O)[C@@]2(C)[C@H]([C@H](OC(=O)c3ccccc3)[C@]3(O)C[C@H](OC(=O)[C@H](O)[C@@H](NC(=O)c4ccoc4)c4ccccc4)C(C)=C1C3(C)C)[C@]1(OC(C)=O)CO[C@@H]1C[C@@H]2O in this assay?
Response given: yes

Challenge: Could you please tell me the result logged for CS(=O)(=O)NNS(=O)(=O)c1ccc(Cl)cc1 in this assay?
Response given: no

Challenge: Could you please tell me the result logged for Cc1ccc(C(=O)/C=C2/Nc3ccccc3NC2=O)c(C)c1 in this assay?
Response given: no

----------
Measured GI50 of individual entries
# Test system: MDA-MB-231
# Assay protocol: NCI tumour cell line growth inhibition, 48 h
Calls of active or inactive are those of the source. Cut-off read from the data, not from the text of the source: active = GI50 up to about 1.1 µM and inactive = higher.

Consider the reported GI50 for these compounds:
Compound: C=C1CCC2CC1[C@@H](C(=O)c1c[nH]c3ccccc13)NC2(C)C (some centres undefined)
GI50: > 37.5 µM (inactive)
--
Compound: NCC(=O)N1CCN(c2nc(N3CCCC3)c3nc(Cl)c(NCc4ccccc4)nc3n2)CC1
GI50: 1.85 µM (inactive)
--
Compound: N=C(/C=C/c1ccc(-c2cn3cc(/C=C/C(=N)N4CCCC4)ccc3n2)cc1)N1CCCC1
GI50: > 100 µM (inactive)
--
Compound: Sc1nc(S)nc(Oc2ccc(Cl)c(Cl)c2)n1
GI50: 39.4 µM (inactive)
--
Compound: COC(=O)C1=C(OC(=O)/C(=C/c2ccccc2)c2ccc(Cl)cc2Cl)C(C(=O)OC)[C@@]2(O)[C@@H](C(=O)OC)[C@H](C)C[C@@H]1[C@@H]2C(=O)OC (some centres undefined)
GI50: > 100 µM (inactive)

Challenge: Lab note: need GI50 for C=C(C)COC1CCCCO1 (centres undefined) on MDA-MB-231, anyone have it?
Response given: > 100 µM (inactive)

Challenge: Lab note: need GI50 for O=S(=O)(/N=C1/S/C(=N\c2ccccc2)N(c2ccccc2)/C1=N/S(=O)(=O)c1ccccc1)c1ccccc1 on MDA-MB-231, anyone have it?
Response given: 13.7 µM (inactive)

Challenge: Lab note: need GI50 for CCOC(=O)Cc1nnc2n(-c3ccccc3)c(=O)c3ccccc3n12 on MDA-MB-231, anyone have it?
Response given: > 100 µM (inactive)

Challenge: Lab note: need GI50 for O=C1c2cccnc2C(=O)c2c1nc1ccccc1c2-c1ccc2c3c(nc4ccccc42)C(=O)c2cccnc2-c13 on MDA-MB-231, anyone have it?
Response given: 2.21 µM (inactive)

----------
# Tested on: HOP-92
# Assay protocol: NCI tumour cell line growth inhibition, 48 h
The source made the active and inactive calls. Cut-off read from the data, not from the text of the source: active = GI50 up to about 1.1 µM and inactive = higher.
Measured GI50 of individual entries

Consider the reported GI50 for these molecules:
Molecule: O=c1c2ccccc2nc(-c2ccccc2)n1NC(=S)Nc1cccc(Cl)c1
GI50: 31.8 µM (inactive)
--
Molecule: CC12CCc3ccccc3C1=NNC(=O)C2 (configuration not stated)
GI50: > 100 µM (inactive)
--
Molecule: CC(C)c1ccc(C(c2c(O)oc3ccccc3c2=O)c2c(O)oc3ccccc3c2=O)cc1
GI50: 7.85 µM (inactive)
--
Molecule: CNc1ncnc2c1nnn2C
GI50: > 100 µM (inactive)

Challenge: So what does the record say about GI50 for CCOC(=O)Cc1nnc2n(-c3ccccc3)c(=O)c3ccccc3n12 ?
Response given: 17.1 µM (inactive)

Challenge: So what does the record say about GI50 for O=C(/C=N/c1ccccc1C(=O)[O-])c1cccs1.O=C(/C=N/c1ccccc1C(=O)[O-])c1cccs1.[Zn+2] ?
Response given: 19.6 µM (inactive)

Challenge: So what does the record say about GI50 for N=c1c2c(ncn1N)Oc1c(c(-c3ccccc3)nn1-c1ccccc1)C2c1ccc(Cl)cc1 (configuration not stated) ?
Response given: 1.71 µM (inactive)

Challenge: So what does the record say about GI50 for Cc1ccc(C(=O)/C=C2/Nc3ccccc3NC2=O)c(C)c1 ?
Response given: 3.04 µM (inactive)

----------
# Test system: XF498
# Assay protocol: NCI tumour cell line growth inhibition, 48 h
Active and inactive are the calls of the source. Rule as the data show it: active = GI50 up to about 1.1 µM and inactive = higher.
Reported metric: GI50

Consider the reported GI50 for these compounds:
Compound: CC(=O)OCCOCNC(=S)N/N=C(\C)c1cnc2ccccc2n1
Reported metric: GI50
Meas value: > 100 µM (inactive)

Compound: CC(=O)C(CN(C)C)C(c1ccccc1)c1c(O)c2ccccc2oc1=O (configuration not stated)
Reported metric: GI50
Meas value: > 100 µM (inactive)

Compound: CCCCCC1C2C(=O)NC(=O)C1C(=O)NC2=O (configuration not stated)
Reported metric: GI50
Meas value: > 100 µM (inactive)

Challenge: Lab note: need GI50 for COc1cccc(NC(=O)CC(=O)N2NC(c3ccccc3)C(/N=N/c3cccc(C(=O)O)c3)C2=O)c1 (configuration not stated) on XF498, anyone have it?
Response given: > 100 µM (inactive)

Challenge: Lab note: need GI50 for CCCCCCCC1(c2ccc(N)cc2)CCC(=O)NC1=O (configuration not stated) on XF498, anyone have it?
Response given: 27.2 µM (inactive)

----------
# System: OVCAR-8
# Assay protocol: NCI tumour cell line growth inhibition, 48 h
The source made the active and inactive calls. No stated cut-off is given here; in the data, active = GI50 up to about 1.1 µM and inactive = higher.
Measured GI50 of individual entries

Compound: COc1cccc(NC(=O)CC(=O)N2NC(c3ccccc3)C(/N=N/c3cccc(C(=O)O)c3)C2=O)c1 (stereo unspecified)
GI50: > 100 µM (inactive)
--
Compound: Cc1cc2[nH]c(Cl)c(/C=C3\C(=O)Nc4ccccc43)c2cc1O
GI50: 3.75 µM (inactive)
--
Compound: CCOC(=O)C1C(=O)CC(O)(c2ccccc2)C(C(=O)OCC)C1c1ccc(OC)cc1 (stereo unspecified)
GI50: 33.4 µM (inactive)
--
Compound: CCOC(=O)c1cc2cc3c4c(c2oc1=O)CCCN4CCC3
GI50: 22.1 µM (inactive)
--
Compound: O=C(CSc1nnc(Cc2ccccc2)o1)Nc1ccc([N+](=O)[O-])cc1
GI50: > 100 µM (inactive)
--
Compound: Cn1c2ccccc2c(=NNc2cccc(C(=O)O)c2)c2ccccc21
GI50: 5.77 µM (inactive)

Challenge: So what does the record say about GI50 for O=C1c2cc3c(cc2CC12Cc1ccccc1C2)CCC3 ?
Response given: 21.2 µM (inactive)

Challenge: So what does the record say about GI50 for Cc1ccc(/C=C2\N=C(N3CCCC(CO)C3)NC2=O)cc1 (stereo unspecified) ?
Response given: > 100 µM (inactive)

Challenge: So what does the record say about GI50 for O=S(=O)(O)c1ccc(NN(c2c(O)ccc3ccccc23)S(=O)(=O)O)cc1 ?
Response given: > 100 µM (inactive)

Challenge: So what does the record say about GI50 for O/N=N/c1cnccn1 ?
Response given: 1200 µM (inactive)

Challenge: So what does the record say about GI50 for CC(C)(C)OC(=O)CN1CCN(CC(=O)N2CCN(C(=O)OCc3ccccc3)CC2)CCN(CC(=O)OC(C)(C)C)CCN(CC(=O)N2CCN(C(=O)OCc3ccccc3)CC2)CC1 ?
Response given: 2.83 µM (inactive)

----------
# Tested on: K562
# Assay protocol: NCI tumour cell line growth inhibition, 48 h
Active and inactive are the calls of the source. Cut-off read from the data, not from the text of the source: active = GI50 up to about 1.1 µM and inactive = higher.
Returns: one label drawn from active, inactive

Recorded results for 2 compounds are shown here.
Compound: CC(=O)OC(Cc1c(O)c2c(C)cccc2oc1=O)C(C)(C)O (stereo not given)
Assigned class: inactive
--
Compound: N=C(N)NS(=O)(=O)c1ccc(NC(=O)c2cccc3c(NNc4ccc(S(N)(=O)=O)cc4)c4ccccc4nc23)cc1
Assigned class: inactive

Challenge: Could you please tell me the result logged for COc1ccc(NCC(=O)Nn2c(C)nc3ccc(S(=O)(=O)Nc4ccc(OC)cc4)cc3c2=O)cc1 in this assay?
Response given: inactive

Challenge: Could you please tell me the result logged for CS(=O)(=O)NNS(=O)(=O)c1ccc(Cl)cc1 in this assay?
Response given: inactive

Challenge: Could you please tell me the result logged for O=c1[nH]nc(Cc2ccc(Cl)cc2)n1/N=C/c1c[nH]c2ccccc12 in this assay?
Response given: inactive

Challenge: Could you please tell me the result logged for Cc1ccc2ccc3ccc(C)nc3c2n1 [NEOCUPROINE] in this assay?
Response given: active

Challenge: Could you please tell me the result logged for COc1cc2cc(C(=O)N3CC(COS(C)(=O)=O)c4ccc(NC(=O)OCc5ccccc5)cc43)[nH]c2c(OC)c1OC (stereo not given) in this assay?
Response given: inactive
